Values were extracted from ChEMBL document CHEMBL2331377.

So I've got a bunch of compounds here, and I need their hepatocyte CLint values.
assay.procedure: in vitro
run.conditions: rat, hepatocytes
Field format: number, assumed µL/min/1e6 cells, no unit text.

Task: Field request: hepatocyte CLint | item: `CC(=O)Nc1ccc(O)cc1OC[C@@H](N)CN1CCC2(CC1)Cc1ccccc1O2`
Result: 6.6

Task: Item: `CC(=O)Nc1ccccc1OC[C@@H](O)CN1CCC2(CC1)Cc1cc(Cl)ccc1O2`
Result: 26

Task: Next entry: `CC(=O)Nc1ccc(F)cc1OC[C@@H](O)CN1CCC2(CC1)Cc1cc(Cl)ccc1O2`
Result: 17.5

Task: Queued: `CC(=O)Nc1ccc(O)cc1OC[C@@H](O)CN1CCC2(CC1)Cc1cc(F)ccc1O2`
Result: 17.6

---

What hepatocyte CLint was measured for each of the following?
assay.procedure: in vitro
run.conditions: human, hepatocytes

Task: Quick check: hepatocyte CLint of `COc1ccc(NC(C)=O)c(OC[C@@H](N)CN2CCC3(CC2)Cc2cc(F)ccc2O3)c1` ?
Result: 3.5 µL/min/1e6 cells

Task: Here is the next compound: `CC(=O)Nc1ccc(F)cc1OC[C@@H](O)CN1CCC2(CC1)Cc1cc(Cl)ccc1O2`
Result: 6.1 µL/min/1e6 cells

Task: And the next one, `CC(=O)Nc1ccc(O)cc1OC[C@@H](N)CN1CCC2(CC1)Cc1ccccc1O2` ?
Result: < 3 µL/min/1e6 cells

Task: For `CC(=O)Nc1ccccc1OC[C@@H](O)CN1CCC2(CC1)Cc1cc(Cl)ccc1O2` then?
Result: 2.5 µL/min/1e6 cells

Task: Try `CC(=O)Nc1ccc(F)cc1OC[C@@H](O)CN1CCC2(CC1)Cc1cc(F)ccc1O2` next.
Result: 9.3 µL/min/1e6 cells

Task: Lookup `CC(=O)Nc1ccc(O)cc1OC[C@@H](O)CN1CCC2(CC1)Cc1cc(Cl)ccc1O2`
Result: < 3 µL/min/1e6 cells

Task: Now try `CC(=O)Nc1ccc(O)cc1OC[C@@H](N)CN1CCC2(CC1)Cc1cc(Cl)ccc1O2` .
Result: < 3 µL/min/1e6 cells

Task: // next record `CC(=O)Nc1ccccc1OC[C@@H](O)CN1CCC2(CC1)Cc1cc(F)ccc1O2`
Result: 11 µL/min/1e6 cells

Task: Also need `CC(=O)Nc1ccc(O)cc1OC[C@@H](N)CN1CCC2(CC1)Cc1cc(F)ccc1O2` , thanks.
Result: < 3 µL/min/1e6 cells

Task: And what about the compound `CC(=O)Nc1ccc(O)cc1OC[C@@H](O)CN1CCC2(CC1)Cc1cc(F)ccc1O2` ?
Result: < 3.6 µL/min/1e6 cells

---

study.target: C-C chemokine receptor type 1 (Homo sapiens, UniProt P32246)
Sequence (P32246 whole entry): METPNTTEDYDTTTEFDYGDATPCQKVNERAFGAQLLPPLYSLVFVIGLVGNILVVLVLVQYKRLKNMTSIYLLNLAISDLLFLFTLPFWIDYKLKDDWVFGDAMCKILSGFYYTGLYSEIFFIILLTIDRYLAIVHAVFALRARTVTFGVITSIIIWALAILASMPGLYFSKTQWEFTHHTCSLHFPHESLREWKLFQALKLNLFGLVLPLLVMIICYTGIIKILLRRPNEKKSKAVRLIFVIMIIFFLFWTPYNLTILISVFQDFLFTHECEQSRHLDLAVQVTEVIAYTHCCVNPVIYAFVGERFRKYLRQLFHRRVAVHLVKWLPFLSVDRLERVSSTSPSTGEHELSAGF
assay.procedure: Displacement of [125I]MIP-1alpha from human recombinant CCR1 expressed in HEK293 cells after 1.5 hrs
measure.name: pIC50
Reminder that pIC50 means the negative base-10 logarithm of the concentration expressed in mol/L.

Task: # get_value(readout='pIC50', item= `CC(=O)Nc1ccc(O)cc1OC[C@@H](N)CN1CCC2(CC1)Cc1ccccc1O2` )
Result: 7.74

Task: Again, but for `COc1ccc(NC(C)=O)c(OC[C@@H](N)CN2CCC3(CC2)Cc2ccccc2O3)c1`
Result: 7.49

Task: Also `CC(=O)Nc1ccccc1OC[C@@H](O)CN1CCC2(CC1)Cc1cc(F)ccc1O2` ?
Result: 9.02

Task: Try the molecule `COc1ccc(NC(C)=O)c(OC[C@@H](O)CN2CCC3(CC2)Cc2cc(Cl)ccc2O3)c1`
Result: 9.05

Task: Would you kindly repeat that for `COc1ccc(NC(C)=O)c(OC[C@@H](N)CN2CCC3(CC2)Cc2cc(Cl)ccc2O3)c1` ?
Result: 8.22

Task: Also check `CC(=O)Nc1ccc(O)cc1OC[C@@H](N)CN1CCC2(CC1)Cc1cc(F)ccc1O2`
Result: 8.85

Task: Do the same for `CC(=O)Nc1ccc(F)cc1OC[C@@H](O)CN1CCC2(CC1)Cc1cc(Cl)ccc1O2` please
Result: 9.19

Task: Param item: `CC(=O)Nc1ccc(O)cc1OC[C@@H](N)CN1CCC2(CC1)Cc1cc(Cl)ccc1O2`
Result: 9.10

Task: Next up: `COc1ccc(NC(C)=O)c(OC[C@@H](N)CN2CCC3(CC2)Cc2cc(F)ccc2O3)c1`
Result: 8.05

---

assay.procedure: in vitro
run.conditions: human, liver microsomes
Assignment: determine reported microsomal CLint for the given compounds.

Task: Report microsomal CLint for `CC(=O)Nc1ccc(O)cc1OC[C@@H](N)CN1CCC2(CC1)Cc1cc(Cl)ccc1O2` please.
Result: < 10 µL/min/mg

Task: Consider next the compound `CC(=O)Nc1ccc(O)cc1OC[C@@H](N)CN1CCC2(CC1)Cc1ccccc1O2` in the same way.
Result: < 10 µL/min/mg

Task: Try this compound next: `CC(=O)Nc1ccccc1OC[C@@H](O)CN1CCC2(CC1)Cc1cc(Cl)ccc1O2`
Result: < 17 µL/min/mg

Task: Let us now turn to `CC(=O)Nc1ccc(O)cc1OC[C@@H](N)CN1CCC2(CC1)Cc1cc(F)ccc1O2`
Result: < 10 µL/min/mg

Task: Could you do the same for `CC(=O)Nc1ccc(O)cc1OC[C@@H](O)CN1CCC2(CC1)Cc1cc(Cl)ccc1O2` , please?
Result: < 10 µL/min/mg
